Reference for the values: patent US6906205B2

# Tested on: ANKA strain of P. berghei
# protocol-description: single dose STI in vivo screen in infected mice
# Set-up: species or system Plasmodium berghei
# condition-label: single 10 mg/kg po in 3% ethanol and 7% Tween 80; untreated control 5.6 ± 0.3
# Survival (days) po per entry

molecule: c1ccc(CON=C2CCC3(CC2)OOC2(O3)C3CC4CC(C3)CC2C4)cc1 (stereo not drawn)
study-target: ANKA strain of P. berghei
unit-text: days
Survival (days) po: 7.5
//
molecule: CN(C)C(=O)N1CCC2(CC1)OOC1(O2)C2CC3CC(C2)CC1C3 (stereo not drawn)
study-target: ANKA strain of P. berghei
unit-text: days
Survival (days) po: 7.0
//
molecule: O=C(OC1CCC2(CC1)OOC1(O2)C2CC3CC(C2)CC1C3)c1ccccc1 (stereo not drawn)
study-target: ANKA strain of P. berghei
unit-text: days
Survival (days) po: 6.3
//
molecule: CS(=O)(=O)c1ccc([C@H]2CC[C@]3(CC2)OOC2(O3)C3CC4CC(C3)CC2C4)cc1 (stereo partly drawn)
study-target: ANKA strain of P. berghei
unit-text: days
Survival (days) po: 7.3
//
molecule: COCC(=O)N(C1CCCCC1)C1CCC2(CC1)OOC1(O2)C2CC3CC(C2)CC1C3 (stereo not drawn)
study-target: ANKA strain of P. berghei
unit-text: days
Survival (days) po: 6.7
//
molecule: O=C1CCC2(CCO1)OOC1(O2)C2CC3CC(C2)CC1C3 (stereo not drawn)
study-target: ANKA strain of P. berghei
unit-text: days
Survival (days) po: 5.3
//
molecule: CC(C)(C)NC(=O)N1CCC2(CC1)OOC1(O2)C2CC3CC(C2)CC1C3 (stereo not drawn)
study-target: ANKA strain of P. berghei
unit-text: days
Survival (days) po: 6.7
//
molecule: FC(F)(F)c1ccc(C2CCC3(CC2)OOC2(O3)C3CC4CC(C3)CC2C4)cc1 (stereo not drawn)
study-target: ANKA strain of P. berghei
unit-text: days
Survival (days) po: 8.7
//
molecule: CCOC(=O)c1ccc(OC[C@H]2CC[C@]3(CC2)OOC2(O3)C3CC4CC(C3)CC2C4)cc1 (stereo partly drawn)
study-target: ANKA strain of P. berghei
unit-text: days
Survival (days) po: 6.7
//
molecule: O=S(=O)(Cc1ccccc1)N1CCC2(CC1)OOC1(O2)C2CC3CC(C2)CC1C3 (stereo not drawn)
study-target: ANKA strain of P. berghei
unit-text: days
Survival (days) po: 5.7
//
molecule: C1C2CC3CC1CC(C2)C31OO[C@]2(CC[C@@H](CNC3CC3)CC2)O1 (stereo partly drawn)
study-target: ANKA strain of P. berghei
unit-text: days
Survival (days) po: 7.0
//
molecule: COCC(=O)N(Cc1ccccc1)C1CCC2(CC1)OOC1(O2)C2CC3CC(C2)CC1C3 (stereo not drawn)
study-target: ANKA strain of P. berghei
unit-text: days
Survival (days) po: 7.0
//
molecule: O=C(NCCO)[C@H]1CC[C@]2(CC1)OOC1(O2)C2CC3CC(C2)CC1C3 (stereo partly drawn)
study-target: ANKA strain of P. berghei
unit-text: days
Survival (days) po: 6.3
//
molecule: O=C(OC1CCC2(CC1)OOC1(O2)C2CC3CC(C2)CC1C3)n1ccnc1 (stereo not drawn)
study-target: ANKA strain of P. berghei
unit-text: days
Survival (days) po: 8.0
//
molecule: O=C(N1CCOCC1)N1CCC2(CC1)OOC1(O2)C2CC3CC(C2)CC1C3 (stereo not drawn)
study-target: ANKA strain of P. berghei
unit-text: days
Survival (days) po: 8.7
//
molecule: NC(=O)OC1CCC2(CC1)OOC1(O2)C2CC3CC(C2)CC1C3 (stereo not drawn)
study-target: ANKA strain of P. berghei
unit-text: days
Survival (days) po: 6.3
//
molecule: Fc1c(F)c(F)c(C2(c3c(F)c(F)c(F)c(F)c3F)OOC3(O2)C2CC4CC(C2)CC3C4)c(F)c1F (stereo not drawn)
study-target: ANKA strain of P. berghei
unit-text: days
Survival (days) po: 6.0
//
molecule: CC1(C)C2CCC1(CS(=O)(=O)N1CCC3(CC1)OOC1(O3)C3CC4CC(C3)CC1C4)C(=O)C2 (stereo not drawn)
study-target: ANKA strain of P. berghei
unit-text: days
Survival (days) po: 5.7
//
molecule: Cc1ccc(S(=O)(=O)N2CCC3(CC2)OOC2(O3)C3CC4CC(C3)CC2C4)cc1 (stereo not drawn)
study-target: ANKA strain of P. berghei
unit-text: days
Survival (days) po: 7.0
//
molecule: CC(C)C1CCC2(CC1)OOC1(O2)C2CC3CC(C2)CC1C3 (stereo not drawn)
study-target: ANKA strain of P. berghei
unit-text: days
Survival (days) po: 7.3
//
molecule: OCC1(CO)COC2(CCC3(CC2)OOC2(O3)C3CC4CC(C3)CC2C4)OC1 (stereo not drawn)
study-target: ANKA strain of P. berghei
unit-text: days
Survival (days) po: 7.3
//
molecule: c1ccc(C2CCC3(CC2)OOC2(O3)C3CC4CC(C3)CC2C4)cc1 (stereo not drawn)
study-target: ANKA strain of P. berghei
unit-text: days
Survival (days) po: 12.6
//
molecule: c1ccc2c(c1)CCCC21OOC2(O1)C1CC3CC(C1)CC2C3 (stereo not drawn)
study-target: ANKA strain of P. berghei
unit-text: days
Survival (days) po: 7.7
//
molecule: O=C(C[n+]1ccccc1)NN=C1CCC2(CC1)OOC1(O2)C2CC3CC(C2)CC1C3.[Cl-] (stereo not drawn)
study-target: ANKA strain of P. berghei
unit-text: days
Survival (days) po: 6.0
//
molecule: c1ccc(CC2(Cc3ccccc3)OOC3(O2)C2CC4CC(C2)CC3C4)cc1 (stereo not drawn)
study-target: ANKA strain of P. berghei
unit-text: days
Survival (days) po: 6.7
//
molecule: O=C(C[C@H]1CC[C@]2(CC1)OOC1(O2)C2CC3CC(C2)CC1C3)N1CCN(c2ccccc2)CC1 (stereo partly drawn)
study-target: ANKA strain of P. berghei
unit-text: days
Survival (days) po: 5.7
//
molecule: N#Cc1ccc(C2(c3ccccc3)OOC3(O2)C2CC4CC(C2)CC3C4)cc1 (stereo not drawn)
study-target: ANKA strain of P. berghei
unit-text: days
Survival (days) po: 6.3
//
molecule: c1ncn(C[C@H]2CC[C@]3(CC2)OOC2(O3)C3CC4CC(C3)CC2C4)n1 (stereo partly drawn)
study-target: ANKA strain of P. berghei
unit-text: days
Survival (days) po: 8.7
//
molecule: O=[N+]([O-])c1cc(C2(c3ccc(Cl)c([N+](=O)[O-])c3)OOC3(O2)C2CC4CC(C2)CC3C4)ccc1Cl (stereo not drawn)
study-target: ANKA strain of P. berghei
unit-text: days
Survival (days) po: 5.7
//
molecule: CCOC(=O)c1ccc(C2(c3ccc(C(=O)OCC)cc3)OOC3(O2)C2CC4CC(C2)CC3C4)cc1 (stereo not drawn)
study-target: ANKA strain of P. berghei
unit-text: days
Survival (days) po: 5.3
//
molecule: O=C1c2ccccc2C(=O)N1CC[C@H]1CC[C@]2(CC1)OOC1(O2)C2CC3CC(C2)CC1C3 (stereo partly drawn)
study-target: ANKA strain of P. berghei
unit-text: days
Survival (days) po: 9.7
//
molecule: CCOC(=O)CCC[C@H]1CC[C@]2(CC1)OOC1(O2)C2CC3CC(C2)CC1C3 (stereo partly drawn)
study-target: ANKA strain of P. berghei
unit-text: days
Survival (days) po: 6.7
//
molecule: O=C(NO)[C@H]1CC[C@]2(CC1)OOC1(O2)C2CC3CC(C2)CC1C3 (stereo partly drawn)
study-target: ANKA strain of P. berghei
unit-text: days
Survival (days) po: 7.7
//
molecule: OC1(c2nccs2)CCC2(CC1)OOC1(O2)C2CC3CC(C2)CC1C3 (stereo not drawn)
study-target: ANKA strain of P. berghei
unit-text: days
Survival (days) po: 6.3
